- Test system: AIM+ and AIM− CD4+ T cells from peptide-expanded PBMCs
- testDescription: TCRβ CDR3 sequencing (immunoSEQ) of sorted AIM+ and AIM− CD4+ T cells;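 further: genomic DNA from sorted cells as template, amplification bias-controlled two-step multiplex PCR, APOB6 pool at 10 µg/ml per peptide, CD40 blocking antibody added before restimulation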
- Type: cell-based, human
- conditionDescription: Donor 4; AIM+ vs AIM−
Output condition met for records whose Log10 Odds Ratio is lower than 1, condition not met for records at or above 1.

Solved cases (8 shown):
>>> assignedclass("CASSELGLNTDTQYF: TCRβ CDR3 clone, TCRBV06-01+TCRBJ02-03, Donor 4")
"condition not met"
>>> assignedclass("CASSELGTRPNEQFF: TCRβ CDR3 clone, TCRBV10-01+TCRBJ02-01, Donor 4")
"condition not met"
>>> assignedclass("CASRKQGLGYTEAFF: TCRβ CDR3 clone, TCRBV02-01+TCRBJ01-01, Donor 4")
"condition not met"
>>> assignedclass("CSVLQHEQYF: TCRβ CDR3 clone, TCRBV29-01+TCRBJ02-07, Donor 4")
"condition met"
>>> assignedclass("CASSYRQTNQPQHF: TCRβ CDR3 clone, TCRBV06-02/06-03+TCRBJ01-05, Donor 4")
"condition not met"
>>> assignedclass("CASSPRGAVNTEAFF: TCRβ CDR3 clone, TCRBV07-09+TCRBJ01-01, Donor 4")
"condition met"
>>> assignedclass("CASSAMVEQPQHF: TCRβ CDR3 clone, TCRBV06-X+TCRBJ01-05, Donor 4")
"condition met"
>>> assignedclass("CASSEMGLNTDTQYF: TCRβ CDR3 clone, TCRBV06-01+TCRBJ02-03, Donor 4")
"condition met"

Please check: Log10 Odds Ratio for CASSPQPSTDTQYF: TCRβ CDR3 clone, TCRBV07-08+TCRBJ02-03, Donor 4 , strictly under 1 or not?
condition not met

Each recorded value in this set is attributed to patent US20260000710A1.
